Assign melting point to each entry below.

Challenge: State, in one line, measured melting point of Cc1ccc(NC(=O)C(C)N2CCN(c3ncccc3[N+](=O)[O-])CC2)cc1 (stereo not drawn)
Response given: 88 to 89 °C

Challenge: State, in one line, measured melting point of CC(C(=O)Nc1ccccc1)N1CCN(c2ncccc2[N+](=O)[O-])CC1 (stereo not drawn)
Response given: 92 to 94 °C

Challenge: State, in one line, measured melting point of Cc1ccccc1NC(=O)C(C)N1CCN(c2ncccc2[N+](=O)[O-])CC1 (stereo not drawn)
Response given: 90 to 92 °C

Challenge: State, in one line, measured melting point of `O=C(CN1CCN(c2ncccc2[N+](=O)[O-])CC1)Nc1ccc(Cl)cc1`
Response given: 99 to 100 °C

Challenge: State, in one line, measured melting point of CC(C(=O)Nc1ccc(Cl)cc1)N1CCN(c2ncccc2[N+](=O)[O-])CC1 (stereo not drawn)
Response given: 57 to 59 °C

Challenge: State, in one line, measured melting point of `O=C(CN1CCN(c2ncccc2[N+](=O)[O-])CC1)Nc1ccccc1[N+](=O)[O-]`
Response given: 113 to 115 °C

Challenge: State, in one line, measured melting point of COc1ccccc1NC(=O)C(C)N1CCN(c2ncccc2[N+](=O)[O-])CC1 (stereo not drawn)
Response given: 108 to 110 °C

Challenge: State, in one line, measured melting point of CC(C(=O)Nc1cccc(Cl)c1)N1CCN(c2ncccc2[N+](=O)[O-])CC1 (stereo not drawn)
Response given: 107 to 109 °C

Challenge: State, in one line, measured melting point of CC(C(=O)Nc1ccccc1Br)N1CCN(c2ncccc2[N+](=O)[O-])CC1 (stereo not drawn)
Response given: 91 to 94 °C

* * *

Assign IC50 to each entry below.
target: UniProt P07374; test: biochemical
Sequence (P07374 whole entry, looked up): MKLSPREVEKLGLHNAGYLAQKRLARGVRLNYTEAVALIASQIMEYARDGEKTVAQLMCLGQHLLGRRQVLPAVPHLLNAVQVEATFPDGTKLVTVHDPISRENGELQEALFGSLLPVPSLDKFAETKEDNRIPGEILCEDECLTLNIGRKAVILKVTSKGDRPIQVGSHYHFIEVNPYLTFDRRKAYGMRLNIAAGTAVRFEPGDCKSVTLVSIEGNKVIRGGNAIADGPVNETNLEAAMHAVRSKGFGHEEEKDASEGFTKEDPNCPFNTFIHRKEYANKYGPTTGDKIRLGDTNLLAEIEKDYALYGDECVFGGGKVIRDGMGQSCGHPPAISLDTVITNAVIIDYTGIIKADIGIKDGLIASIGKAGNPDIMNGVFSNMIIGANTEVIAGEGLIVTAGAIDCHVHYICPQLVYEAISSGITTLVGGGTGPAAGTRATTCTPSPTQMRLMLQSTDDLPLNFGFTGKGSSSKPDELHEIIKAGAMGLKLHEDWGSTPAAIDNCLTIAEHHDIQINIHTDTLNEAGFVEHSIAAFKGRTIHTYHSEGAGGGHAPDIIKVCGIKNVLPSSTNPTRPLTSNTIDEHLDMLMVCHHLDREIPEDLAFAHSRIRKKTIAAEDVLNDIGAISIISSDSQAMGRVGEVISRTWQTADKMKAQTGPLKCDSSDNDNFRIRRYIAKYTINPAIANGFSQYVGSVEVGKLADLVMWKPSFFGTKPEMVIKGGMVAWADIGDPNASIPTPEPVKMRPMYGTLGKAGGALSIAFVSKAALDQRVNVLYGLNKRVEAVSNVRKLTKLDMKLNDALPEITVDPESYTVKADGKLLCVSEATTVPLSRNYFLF
Give just the numeric value; µM need not be written.

Challenge: Enter measured IC50, system UniProt P07374, for the molecule shown: Cc1ccccc1NC(=O)C(C)N1CCN(c2ncccc2[N+](=O)[O-])CC1 (centres unmarked)
Response given: 3.01

Challenge: Enter measured IC50, system UniProt P07374, for the molecule shown: `O=C(CN1CCN(c2ncccc2[N+](=O)[O-])CC1)Nc1ccccc1[N+](=O)[O-]`
Response given: 7.12

Challenge: Enter measured IC50, system UniProt P07374, for the molecule shown: `O=C(CN1CCN(c2ncccc2[N+](=O)[O-])CC1)Nc1ccccc1Cl`
Response given: 2

Challenge: Enter measured IC50, system UniProt P07374, for the molecule shown: `Cc1ccccc1NC(=O)CN1CCN(c2ncccc2[N+](=O)[O-])CC1`
Response given: 14.1

Challenge: Enter measured IC50, system UniProt P07374, for the molecule shown: `O=[N+]([O-])c1cccnc1N1CCNCC1`
Response given: 3.9

Challenge: Enter measured IC50, system UniProt P07374, for the molecule shown: `COc1ccccc1NC(=O)CN1CCN(c2ncccc2[N+](=O)[O-])CC1`
Response given: 5.33

Challenge: Enter measured IC50, system UniProt P07374, for the molecule shown: `O=C(CN1CCN(c2ncccc2[N+](=O)[O-])CC1)Nc1cccc(Cl)c1`
Response given: 2.13

Challenge: Enter measured IC50, system UniProt P07374, for the molecule shown: CC(C(=O)Nc1ccccc1[N+](=O)[O-])N1CCN(c2ncccc2[N+](=O)[O-])CC1 (centres unmarked)
Response given: 2.24
